System: M14
PROTOCOL: NCI tumour cell line growth inhibition, 48 h
Calls of active or inactive are those of the source. Cut-off read from the data, not from the text of the source: active = GI50 up to about 1.1 µM and inactive = higher.
Below: a set of entries, each annotated with reported GI50.

Example compounds with recorded GI50:
[[record]]
compound = "CC(=O)NC1(c2cc3ccccc3s2)CCCCCC1"
attribute_measured = "GI50"
measured_value = "42 µM (inactive)"

[[record]]
compound = "N=C(N)SC1c2ccccc2-c2cc([N+](=O)[O-])ccc21 (stereo not given)"
attribute_measured = "GI50"
measured_value = "5.15 µM (inactive)"


What reported GI50 corresponds to "NC(=O)C[C@H](NC(=O)C1(NC(=O)[C@H](Cc2ccc(CP(=O)(O)O)cc2)NC(=O)C(=O)O)CCCCC1)C(=O)NCCCc1cccc2ccccc12" on M14?
> 10 µM (inactive)

Follow-up entry: "Oc1ccc(Cl)cc1-c1cc(-c2ccccc2)nc(S)n1"
> 100 µM (inactive)

Follow-up entry: "Cc1cccc2c(N)c3cccc(C(=O)NCC[N+](C)(C)Cc4ccc([N+](=O)[O-])s4)c3nc12"
16.5 µM (inactive)

Follow-up entry: "CCOC(=O)/C(=C\NCc1ccc2c(c1)OCO2)c1nc2ccccc2[nH]1"
47.2 µM (inactive)

Follow-up entry: O=c1[nH]c2cc(Cl)ccc2nc1/C(=N/Nc1ccccc1)C(O)c1ccco1 (stereo not given)
> 100 µM (inactive)

Follow-up entry: C/C(Cc1ccc2c(c1)OCO2)=N\NC(=O)C(C)Sc1nnc(SC(C)C(=O)N/N=C(\C)Cc2ccc3c(c2)OCO3)s1 (stereo not given)
> 100 µM (inactive)

Follow-up entry: CN1N=C(c2ccncc2)OC1c1ccccc1F (stereo not given)
> 100 µM (inactive)

Follow-up entry: COC(=O)C(=O)C(C(=O)C(=O)Nc1nc2ccc(C)cc2s1)c1nc2ccc([N+](=O)[O-])cc2nc1O (stereo not given)
> 100 µM (inactive)

----------
Tested on: CAKI-1
PROTOCOL: NCI tumour cell line growth inhibition, 48 h
Activity calls are given as the source filed them. No stated cut-off is given here; in the data, active = GI50 up to about 1.1 µM and inactive = higher.
Below: a set of entries, each annotated with reported GI50.

Example molecules with recorded GI50:
[[record]]
molecule = "CC1CC[C@]2(C(=O)O)CCC3(C)C(=CC(=O)C4[C@@]5(C)CCC(=O)C(C)(C)C5CC[C@]43C)[C@@H]2[C@H]1C (stereo partly specified)"
measured_value = "39.8 µM (inactive)"

[[record]]
molecule = "CC(C)(C)c1cc(C2=NN(c3ccccc3)C(c3ccccc3)C2)cc(C(C)(C)C)c1O (stereo unspecified)"
measured_value = "> 100 µM (inactive)"

[[record]]
molecule = "CCCc1nc(NC#N)nc(C(=O)NC23CC4CC(CC(C4)C2)C3)c1C"
measured_value = "> 100 µM (inactive)"


What reported GI50 corresponds to "CCOC(=O)N1C/C(=C\c2ccc(N(C)C)cc2)C(=O)/C(=C/c2ccc(N(C)C)cc2)C1" on CAKI-1?
> 100 µM (inactive)

Follow-up entry: "CC(C)[C@H](NC(=O)[C@H](N)Cc1ccc(N(CCCl)CCCl)cc1)C(=O)O"
> 100 µM (inactive)

Follow-up entry: "CCc1cc2c(cc1C(=O)CCC(=O)O)CC1(C2)Cc2cc(CC)c(C(=O)CCC(=O)O)cc2C1"
> 100 µM (inactive)

----------
Below: a set of entries, each annotated with reported GI50.
Test system: NCI-H23
PROTOCOL: NCI tumour cell line growth inhibition, 48 h
Activity calls are given as the source filed them. No stated cut-off is given here; in the data, active = GI50 up to about 1.1 µM and inactive = higher.

[[record]]
compound = "CC(=O)[O-].Cc1ncc(CO)c(/C=N/NC(N)=S)c1[O-].[Zn+2]"
tgt = "NCI-H23"
attribute_measured = "GI50"
measured_value = "> 100 µM (inactive)"


Look up GI50 for this compound: "CC(=O)c1cc(C)n2c1CS[C@@H]2c1ccccc1"
65.6 µM (inactive)

----------
Below: a set of entries, each annotated with reported GI50.
Test system: KM12
PROTOCOL: NCI tumour cell line growth inhibition, 48 h
The source made the active and inactive calls. Cut-off read from the data, not from the text of the source: active = GI50 up to about 1.1 µM and inactive = higher.

Example compounds with recorded GI50:
[[record]]
compound = "C[C@]12c3c4cc(NC(=O)C(=O)NCc5ccc(-c6ccccn6)nc5)cc3Oc3cc(NC(=O)C(=O)NCc5ccc(-c6ccccn6)nc5)cc(c31)OC1C=C(NC(=O)C(=O)NCc3ccc(-c5ccccn5)nc3)C=C(O4)C12 (stereo not given in full)"
attribute_measured = "GI50"
measured_value = "16.3 µM (inactive)"

[[record]]
compound = "COc1ccccc1N1C(=O)C2C3c4ccccc4C(OC(C)=O)(c4ccccc43)C2C1=O (stereo not given)"
attribute_measured = "GI50"
measured_value = "77.4 µM (inactive)"

[[record]]
compound = "[N-]=[N+]=NCC1OCC(O)C(OCc2ccccc2)C1OCc1ccccc1 (stereo not given)"
attribute_measured = "GI50"
measured_value = "41 µM (inactive)"

[[record]]
compound = "CC(=O)Nc1sccc1S(=O)(=O)c1ccc(Cl)cc1"
attribute_measured = "GI50"
measured_value = "> 100 µM (inactive)"


Look up GI50 for this compound: Cc1[nH]c(=O)[nH]c(=O)c1/C=C/C(=O)NC(CO)C[S+]([O-])Cc1ccccc1 (stereo not given)
299 µM (inactive)

Follow-up entry: "COC(=O)c1cc(C)n(CN(Cc2ccccc2)Cn2nc(C(=O)OC)cc2C)n1"
> 100 µM (inactive)

----------
System: SNB-19
PROTOCOL: NCI tumour cell line growth inhibition, 48 h
Calls of active or inactive are those of the source. Cut-off read from the data, not from the text of the source: active = GI50 up to about 1.1 µM and inactive = higher.
ATTRIBUTE MEASURED: GI50

Example compounds with recorded GI50:
[[record]]
compound = "COc1cccc(NC(=O)N/C(=C/c2ccc(N(CCC#N)CCC#N)cc2)NC(=O)c2cc([N+](=O)[O-])ccc2Cl)c1"
measured_value = "> 100 µM (inactive)"

[[record]]
compound = "COc1cc(C(=O)CC2(O)C(=O)Nc3c(Cl)cc(Cl)cc32)ccc1O (stereo not given)"
measured_value = "76.7 µM (inactive)"

[[record]]
compound = "Cc1ccc2nc(/C(=C/c3ccc(/C=C(\\NC(=O)c4ccccc4)c4nc5ccc(C)cc5[nH]4)c(C)c3)NC(=O)c3ccccc3)[nH]c2c1"
measured_value = "31.2 µM (inactive)"

[[record]]
compound = "CCc1oc2ccc(OC)c3c2c1C=CC=C3"
measured_value = "> 100 µM (inactive)"


Next item in the queue.
Look up GI50 for this compound: O=C(O)CN(CC(=O)O)C1CCCCC1N1CC(=O)OC(=O)C1 (stereo not given)
> 100 µM (inactive)

----------
Below: a set of entries, each annotated with reported GI50.
System: HCC 2998
PROTOCOL: NCI tumour cell line growth inhibition, 48 h
Calls of active or inactive are those of the source. Rule as the data show it: active = GI50 up to about 1.1 µM and inactive = higher. Where a SMILES comes first, the peptide text is derived from it. The star is where a group is joined. Boc = CC(C)(C)OC(=O)*

Example compounds with recorded GI50:
[[record]]
compound = "CCOC(=O)C(NCc1ccccc1)(NC(=O)c1ccccc1)C(F)(F)F (configuration not stated)"
measured_value = "> 100 µM (inactive)"

[[record]]
compound = "COC(=O)C(Cc1c[nH]c2ccccc12)NC(=O)C(Cc1c[nH]c2ccccc12)NC(=O)C(Cc1c[nH]c2ccccc12)NC(=O)OC(C)(C)C (stereo not drawn) (Boc-Trp-Trp-Trp-OMe; configuration not given here)"
measured_value = "18.6 µM (inactive)"

[[record]]
compound = "CC(Oc1ccc(Oc2cnc3ccc(Cl)cc3n2)cc1)C(=O)O (configuration not stated)"
measured_value = "> 87.9 µM (inactive)"

[[record]]
compound = "Cc1ccc(Oc2cc(C)ccc2P(=O)(O)O)cc1"
measured_value = "> 100 µM (inactive)"

[[record]]
compound = "COc1ccccc1N1CCN(Cn2c(=O)oc3cccnc32)CC1"
measured_value = "> 100 µM (inactive)"


Look up GI50 for this compound: CCCCC(C(=O)C(=O)NC1C2CC3CC(C2)CC1C3)C(=O)C(C)C (configuration not stated)
> 100 µM (inactive)

Follow-up entry: COc1cccc(C2c3cc4c(cc3OC(N3CCOCC3)C2C)OCO4)c1OC (configuration not stated)
10.4 µM (inactive)

Follow-up entry: "CC1(C)CC(C)(C)CC(O)(C2(O)CC(C)(C)CC(C)(C)C2)C1"
> 100 µM (inactive)

Follow-up entry: COC1OC(=O)C(OC)C(OC)C1OC (configuration not stated)
> 100 µM (inactive)

Follow-up entry: "Cc1cccc(Cl)c1NC(N)=S"
> 100 µM (inactive)

----------
Tested on: UACC-62
PROTOCOL: NCI tumour cell line growth inhibition, 48 h
Active and inactive are the calls of the source. Cut-off read from the data, not from the text of the source: active = GI50 up to about 1.1 µM and inactive = higher.
ATTRIBUTE MEASURED: GI50

[[record]]
compound = "COc1ccc(NC(=O)C(C)Oc2ccc(OCC3CCCCC3)cc2)cc1 (centres undefined)"
attribute_measured = "GI50"
measured_value = "> 100 µM (inactive)"

[[record]]
compound = "COc1ccccc1NC(=O)C(CC(C(=O)Nc1ccccc1OC)/C(C)=N/Nc1ccc([N+](=O)[O-])cc1[N+](=O)[O-])/C(C)=N/Nc1ccc([N+](=O)[O-])cc1[N+](=O)[O-] (centres undefined)"
attribute_measured = "GI50"
measured_value = "> 100 µM (inactive)"

[[record]]
compound = "CCN(CC)c1ccc(/N=N\\c2ccc(-c3nc4ccc[n+](C)c4s3)cc2)cc1"
attribute_measured = "GI50"
measured_value = "7.59 µM (inactive)"

[[record]]
compound = "Cc1oc2c(c1C(=O)c1ccccc1)C(=O)c1ccccc1C2=O"
attribute_measured = "GI50"
measured_value = "2.98 µM (inactive)"

[[record]]
compound = "O=c1cccccc1NCCOCCNc1cccccc1=O"
attribute_measured = "GI50"
measured_value = "> 100 µM (inactive)"

[[record]]
compound = "CC1(C)CC(=O)C(=CNC(N)=S)C(=O)C1"
attribute_measured = "GI50"
measured_value = "> 100 µM (inactive)"


What reported GI50 corresponds to "CC1=NC2=Nc3nc(C)cc[n+]3CN2C=C1" on UACC-62?
44.2 µM (inactive)
